Conditions: rat; liver microsomes; pH 7.4; 15.0 min; 1.0 µM
Respond with Fulfilled for half-life values of 20 min and above, Not fulfilled for values below.

// known answers, use as guide
molecule	category.label
O=C(NCc1ccco1)c1nc2nc(-c3cccs3)cc(C(F)(F)F)n2n1	Fulfilled
FC(F)(F)c1cccc(Sc2nc(-c3ccccc3)nnc2C(F)(F)F)c1	Not fulfilled
Cc1cc(C)nc(NC(=S)N2CCN(c3ccc(Cl)cc3[N+](=O)[O-])CC2)c1	Not fulfilled
COc1cc(-c2nc(Cn3nnc(C(=O)Nc4cc(C)cc(C)c4)c3C)c(C)o2)cc(OC)c1OC	Fulfilled
CCOc1ccc(CCNC(=O)c2ccc(C(=O)c3ccccc3)cc2)cc1OCC	Not fulfilled

Prompt: Reported half-life at or above 20 min? CC1=C(C(=O)Nc2ccccc2C)C(c2ccccc2Br)N=C(Nc2nc3ccccc3o2)N1 (stereo not drawn)
Response: Not fulfilled

Prompt: Reported half-life at or above 20 min? COc1ccc(C[C@@H]2C(=O)N[C@H](C)C(=O)N(C)[C@@H]3C(=O)N(C)[C@@H](Cc4ccc(O)c(c4)Oc4ccc(cc4)[C@H]3O)C(=O)N[C@@H](C)C(=O)N[C@H](C)C(=O)N2C)cc1
Response: Fulfilled

###

Details: rat; liver microsomes; pH 7.4; 15.0 min; 1.0 µM
The label 1 is reserved for half-life strictly under 4 min; -1 covers values equal to or above it.

// known answers, use as guide
compound	category.label
N#Cc1cccc(-c2csc(N3CCC(C(N)=O)CC3)n2)c1	1
O=[N+]([O-])c1ccc(-c2nc(Nc3ccc(F)c(F)c3)c3ccccc3n2)cc1	-1
CCOc1cc(=O)n2c(c1C(=O)Nc1cc(OC)c(Cl)cc1OC)CCCC2	-1
CC(CCc1ccc(O)cc1)NCc1ccc(Cl)cc1Cl (stereo unspecified)	1

Prompt: Bench note: check whether COc1ccc(NC(=O)c2c(C)cccc2C)cc1[S+](=O)([O-])N(C)C shows half-life below 4 min
Response: -1

Prompt: Bench note: check whether CC1(C)CC2CC(C)(CN2S(=O)(=O)c2ccc(C(=O)Nc3cccc(S(=O)(=O)N4CCOCC4)c3)cc2)C1 (stereo unspecified) shows half-life below 4 min
Response: 1

Prompt: Bench note: check whether COc1c2c(c3c(c1CCC(=O)O)OC(C)(C)C=C3)OC(C)(C)C=C2 shows half-life below 4 min
Response: -1

Prompt: Bench note: check whether Nc1ncnc2c1ncn2[C@H]1O[C@@H](CO)[C@@H](O)[C@H]1N shows half-life below 4 min
Response: -1

Prompt: Bench note: check whether COc1cccc(CN2CCCC(c3nc(-c4ccncc4)ncc3-c3ccccc3)C2)c1O (stereo unspecified) shows half-life below 4 min
Response: -1

Prompt: Bench note: check whether CC[C@H]1CN2CCc3cc(OC)c(OC)cc3[C@@H]2C[C@@H]1C[C@H]1NCCc2cc(OC)c(OC)cc21 shows half-life below 4 min
Response: -1

Prompt: Bench note: check whether O=C(Cc1c[nH]c2ncc(-c3ccc(Cl)cc3)cc12)NCc1cccnc1 shows half-life below 4 min
Response: 1

Prompt: Bench note: check whether CCCCc1ccc(NC(=O)c2ccc3c(c2)N(S(C)(=O)=O)CC3)cc1 shows half-life below 4 min
Response: -1

Prompt: Bench note: check whether O=C(Nc1ccccc1)C1CC(=O)N(c2n[nH]c3cc(Br)ccc23)C1 (stereo unspecified) shows half-life below 4 min
Response: -1

Prompt: Bench note: check whether COc1ccc(Cl)cc1NC(=O)c1sc2nc3c(cc2c1N)N1CCC3CC1 shows half-life below 4 min
Response: -1

Prompt: Bench note: check whether CC(C)COc1ccc(-c2ccc(=O)n(CC(=O)NCCc3ccccc3)n2)cc1 shows half-life below 4 min
Response: 1

Prompt: Bench note: check whether Nc1nccc2c1ncn2[C@@H]1C=C(CO)[C@@H](O)[C@H]1O shows half-life below 4 min
Response: -1
